- experiment.summary: yeast display, Sf9 membrane polyspecificity reagent, FACS + sequencing; frameworks hold sequencing errors
measured.endpoint: polyreactivity (PSR sort gate)

Study these solved cases before continuing.
# residue.string, measured.endpoint, recorded.value
data = [
    ("QVQLVESGGGLVQAGGSLRLSCAASGIIFYGYVMGWYRQAPGKERELVAAISKSGGSTYYADSVKGRFTISRDIAKNTVYLQMNSLIPEDTAVYYCAAERKSFYRYNYWGQGTQVSVSS", "polyreactivity (PSR sort gate)", "high polyreactivity"),
    ("QVQLVESGGGLVQAGGSLRLSCAASGSIFGTNAMGCYRQAPGKERELVAAIDGGSTTYYADSVKGRFTISRDNAKNTVYLQMNSLKPEDTAVYYCAADGTRSLNYAGYAGYEYWGQGTQVTVSS", "polyreactivity (PSR sort gate)", "low polyreactivity"),
    ("QVQLVESGGGLVQAGGPLRLSCAASGRIFWPYTMGWYRQTPGKERELVAVITYSGGSTYYADSVKGRFTISRDNAKNTVYFQMNSLKPEDTAVYYCNAGIRFYLHAHGYYWGQGTQVTVSS", "polyreactivity (PSR sort gate)", "high polyreactivity"),
    ("QVQLVESGGGLVQAGGRLRLSCAASGITFYDYAMGWYRQAHGKERELVAVITRRGGSTYYAHSVKGRFTISRDNAKNTVYLQMNSLKPEDTAVYYCNADRTAPERYSRVPSSDSWGQGTQVTVSS", "polyreactivity (PSR sort gate)", "high polyreactivity"),
]

[in] Which polyreactivity (PSR sort gate) is reported for this sequence? QVQLVESGGGLVQAGGSLRLSCAASGIIFGVYAMGWYRQAPGKERELVAAIDGNGSSTYYADSVKGRFISSRDNAKTTVYLQMNSLKPEDTAVYYCAADLVWVSTSYYYWGQGTQVTVSS
[out] low polyreactivity

###

- experiment.summary: yeast display, Sf9 membrane polyspecificity reagent, FACS + sequencing; frameworks hold sequencing errors
measured.endpoint: polyreactivity (PSR sort gate)

Study these solved cases before continuing.
# residue.string, recorded.value
records = [
    ("QVQLVESGGGLVQAGGSLRLSCAASGFTFEKYVMGWYIQAPGKETEFVAAITRSGGRTYYADSVKGRFTISRDNAKNTVYLQMNSLKPEDTAVYSCNAVTSWAGSLDYWGQGTQVTVSS", "high polyreactivity"),
    ("QVQLVESGGGLVQAGGSLRLSCAASGRIFRYNAMGWYRQAPGKERELVATISRGGGSTYYADSVKGRFTISRDNAKNTVYLQMNSLKPEDTAVYYCAAVGYYLVKFDYWGQGTQVTVSS", "high polyreactivity"),
    ("QVQLEESGGGLVQAGGSLRLSCAASGSTCPTNAIGWYRQAPRKERELVADITIRRGGTSYADSVKGRFTMSRDNAKNTVYLQMNSLKPEDTAVYYCARSKSTELKRLLYDSWGQGTQVTVSS", "low polyreactivity"),
    ("QVQLVESGGGLVQAGGSLRLSCAASGLTYSNAMGWYRQAPGKERELVAAISWRGGRTYYADSVKGRFTISRDNAKNTVYLQMNSLKPEDTAVYYCAKYAHGHKWYGYWGQGTQVTVSS", "low polyreactivity"),
    ("QVQLVESGGGLVQAGGSLRLSCAASGSIFRTNAMGWYRQAPGKERELVAAITGRGGSTYYADSVKGRFTISRNNAKNTVYLQMNSLKPEDTAVYYCAADTWYGYRYKYDYWGQGTQVTVSS", "high polyreactivity"),
    ("QVQLVESGGGLVQAGGSLRLSCAASGRTLSGYAMGWYRQAPGKERELVAVITSGGSTYYADSVKGRFTISRDNAKNTVYLQMNSVKPEDTAVYYCSARRGRRLQDSQYWGQGTQVTVSS", "high polyreactivity"),
    ("QVQLVQTGRGLVQAGGSLRLICAASGIIFKYYGMGWYRQAPGKERELVAAITDRGGSTYYADSVKGRFTISRDHAKNTVYLQMNSLKPEDTAVYYCSAVPSSGKSGFRGGYWGQVTQVTVSS", "high polyreactivity"),
    ("QVQLVESGGGLVQAGGSLRLSCAATGRTFVTYAMGWYRQAPGKEREFVAAITWSTGTSTYYADSVKGRFTISRDNAKNTVFLQIHSLNQEDTAVDYCHADSQEWIWLYEGYDYWGQGTQVSVSS", "low polyreactivity"),
]

[in] Which polyreactivity (PSR sort gate) is reported for this sequence? QVQLVESGGGLVQAGGSLRLSCAASGRIFYSNVMGWYRQAPGKERELVAAISGRTGGTYYADSVKGRFTISRDNAKNTVYLQMNSLKPEDTAVYYCNAYSLRHHHSDYWGQGTQVTVSS
[out] low polyreactivity

[in] Item: QVQLVESGGGLVQAGGSLRLSCSASGFTFEEYAMGWYRQAPGKERELVAAIDYTVGSTYYADSVKGRFTISRDNAKNTVYLQINSLKPEDTAVYYCNVDLSYSFNSAYGYWGQGTQVSVSS
[out] low polyreactivity

[in] Item: QVQIVESGGGLVQAGGSLRLSCAASGRTFGIYAMGWYRQAPGKERELVDAIRWRDGSTYYADSVKGRFTISRDNAKNTVYLQMTSLKPEDTAVYYCAATSRVYVRGSYWKYGYWGQGTQVTVSS
[out] high polyreactivity

[in] Item: QVQLVESGGGLVQAGGSLRLSCAASGRTFRYYAKGWYRQAPGKERELVAAITVTVTSTFYADSVKGRFTISRDNAKNTVYLQMNSLKPEDTAVYYCAKVDRQSPGQYYYWGQGTQVTVSS
[out] low polyreactivity

[in] Item: QVQHVEKGGALVQAGGSLRLSCAASGFTVDWYAMGWYIQAPGKERELVAAITTSGGTKYYADSVKGRFTISRDNAKNTVYLLMNCLNPEDTAVYYCAAEGTWSRNYDYWGQGTQVTVSS
[out] low polyreactivity

[in] Item: QVQLVESVGGLVQAGGSLRLSCAASGRTIHFNTMGWYRQAPGKERELVAAIRWGGNTYYADSVKGRFTISRDNAKNTVYLQMNSLKPEDTAVYYCAADRWYYFLMYYWGQGTQVTVSS
[out] low polyreactivity

[in] Item: QVQLVESGGGLVQAGGSLRLSCAASGSIFWKNAMGWYRQAPGKERELVAAITRRGGSTYYADSVKGRFTISRDNAKNTVYLQMNSLKPEDTAVYYCAATGGAPYKIEWGQGTQVTVSS
[out] low polyreactivity

[in] Item: QVQLEDSGGGLVQAGGSLRLSCAASGSTFNQYAMGWYRQATGKERELVAAITTSGARTYYADSVKGRFTISRDNAKNTVYLQMNSLKPEDTAVYYCNAGYFSYRYRYGYDYWGLGTQVTVSS
[out] high polyreactivity

[in] Item: QVQIVESGGGLVQAGGSLRLSCAASGTTFRFYAMGWYRQAPGKERELVAAIRRGGSTYYADSVKGRFTISRDNAKNTVYLQMNSLKPEDTAVYFCAAEPGYYSRPDYRVYRLYYWGLGTQVTVSS
[out] high polyreactivity

[in] Item: QVQLVESGGGLVQAGGSLRLSCAASGLIFVSYAMGWYRQAPGKERELVAAISSGGSTYYADSVKGRFTISRDNAKNTVYLQINSLKPEDTAVYYCAAEYVFRGYVGYDYWGQGTQVTVSS
[out] low polyreactivity

[in] Item: QVQLVESGGGLVHAGGSLRLSCAASGRIFKSYAMGWYRQAPGKEREFVAAISTRSSSTYYADSVKGRFTISRDNAKNTVYLQMNSLKPEDTAVYYCAKVYQTLPYYYPGDYWGQGTQVNVSS
[out] low polyreactivity

[in] Item: QVQLVESGGGLVQAGGSLRLSCAASGRIFFRYAMGWSRQAPGKEREFVATITWSGGRTHYADSVKGRFTISRDNAKNTVYLQMNSLKPEDTAVYYCAASYHRYAFDYWGQGTQVTGSS
[out] high polyreactivity

[in] Item: QVQLVESGGGLVQAGGSLRLSCAASGRIFLYNAMGWYRQAPGKERELVAVISSNGGRTYYADSVKGRFTISRDNAKNTVYLQMNSLKPEDTAVYYCAAVQHYVTHMDYWGQGTQVTVSS
[out] low polyreactivity

###

- experiment.summary: yeast display, Sf9 membrane polyspecificity reagent, FACS + sequencing; frameworks hold sequencing errors

# residue.string, polyreactivity (PSR sort gate)
rows = [
    ("QVQLVESGGGLVQAGGSLRLSCAASGRIFEHYAMGWYRQAPGKERELVAAITVSGGSTYYADSVKGRFTISRDNAKNTVYLQMNSLKPEDTAVYYCNADQRDYGSYVTKLDYWGQGTQVTVSS", "low polyreactivity"),
    ("QVQLVESGGGLVQAGGSLRLSCAASGNTFVANDMGWYRQAPGKERELVAVISGSGGDTYYADSVKGRFTISRDNAKNTVYLQMNSLKPEDTAVYYFAADWYGRETDRSDSDYEYWGQGTKVTVSS", "low polyreactivity"),
    ("QVQLVESGGGLVQAGGRLRLSCAASGLIFWFNTMGWYRQAPGKERELVAAITSGGGSTYYADSVKGRFTISRDNAKNTVYLQMNSLKPEDTAVYYCNAGAGRWRARQWHDYWGQGTQVTVSS", "low polyreactivity"),
]

These measurements were taken from the nanobody polyreactivity screen of Harvey et al. (2022).
